# Test system: NCI-H1944;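 note: CTB read-out in 384-well plates, triplicate wells, NPI normalised per plate against 1 µM phenylarsine oxide (0) and 0.1% DMSO (1) controls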
# Assay Summary: normalised cell viability (NPI; 0 = phenylarsine oxide control, 1 = DMSO control) (fraction of DMSO control); NCI-H1944 is a non-small cell lung cancer line; higher = more viable cells (less compound toxicity)
# Recorded Conditions: glucocorticoid arm: hydrocortisone 2.75 uM pre-treated 2 days and continued; compound 5 µM; 6 days
Where a name gives a salt, the structure may show the parent alone. The full ranking holds about 1,900 compounds; the median of “normalised cell viability (NPI; 0 = phenylarsine oxide control, 1 = DMSO control)” is about 1, and the lowest 2% start at about 0.039. The entries come from a sample that favours the lowest values as a whole.
Note to self: use Yes only for normalised cell viability readings below 1; a reading exactly at 1 still gets No.

Consider the worked cases shown below.
compound=CCN1CCN(Cc2ccc(Nc3ncc(F)c(-c4cc(F)c5nc(C)n(C(C)C)c5c4)n3)nc2)CC1 study_system=NCI-H1944 category=Yes
compound="CN1CC[C@H](c2c(O)cc(O)c3c(=O)cc(-c4ccccc4Cl)oc23)[C@H](O)C1 [Flavopiridol hydrochloride]" study_system=NCI-H1944 category=Yes
compound="CN1CC[C@H](c2c(O)cc(O)c3c(=O)cc(-c4ccccc4Cl)oc23)[C@H](O)C1 [Flavopiridol (Alvocidib)]" study_system=NCI-H1944 category=Yes

// query Determine whether this compound shows normalised cell viability lower than 1 (ties excluded): CN1CCc2c(c3ccccc3n2Cc2ccc(C(=O)NO)cc2)C1 [Tubastatin A HCl]
// result Yes

// query Determine whether this compound shows normalised cell viability lower than 1 (ties excluded): CC(Cc1ccccc1)Nc1ncnc2c1ncn2C1OC(CO)C(O)C1O (stereo not drawn) [R(-)-N6-(2-Phenylisopropyl)adenosine]
// result No

// query Strictly below 1 in normalised cell viability? Cn1cc(C(=O)OCC2CCN(CCNS(C)(=O)=O)CC2)c2ccccc21
// result No

// query Record Nc1ccn([C@@H]2O[C@H](CO)[C@@H](O)[C@@H]2O)c(=O)n1 : is its normalised cell viability strictly below 1?
// result Yes

// query Say whether its normalised cell viability is strictly beneath 1. Entry: Nc1ccn([C@@H]2O[C@H](CO)[C@@H](O)[C@@H]2O)c(=O)n1 [Cytosine-1-beta-D-arabinofuranoside hydrochloride]
// result Yes

// query Does the reported normalised cell viability of Nc1ncn([C@@H]2O[C@H](CO)[C@@H](O)[C@H]2O)c(=O)n1 stay below 1?
// result No

// query normalised cell viability strictly < 1 for this compound? CN1CC[C@@H](c2c(O)cc(O)c3c(=O)cc(-c4ccccc4Cl)oc23)[C@@H]1CO
// result Yes

// query Hello, is normalised cell viability of the following compound strictly smaller than 1? O=C(NCCO)c1ccc2c(c1)nc(Nc1cccc(Cl)c1)c1ccncc12
// result No
